Let's go through some IC50 measurements on FGFR1 (Homo sapiens) together.
Sequence (P11362 22-822, species assumed): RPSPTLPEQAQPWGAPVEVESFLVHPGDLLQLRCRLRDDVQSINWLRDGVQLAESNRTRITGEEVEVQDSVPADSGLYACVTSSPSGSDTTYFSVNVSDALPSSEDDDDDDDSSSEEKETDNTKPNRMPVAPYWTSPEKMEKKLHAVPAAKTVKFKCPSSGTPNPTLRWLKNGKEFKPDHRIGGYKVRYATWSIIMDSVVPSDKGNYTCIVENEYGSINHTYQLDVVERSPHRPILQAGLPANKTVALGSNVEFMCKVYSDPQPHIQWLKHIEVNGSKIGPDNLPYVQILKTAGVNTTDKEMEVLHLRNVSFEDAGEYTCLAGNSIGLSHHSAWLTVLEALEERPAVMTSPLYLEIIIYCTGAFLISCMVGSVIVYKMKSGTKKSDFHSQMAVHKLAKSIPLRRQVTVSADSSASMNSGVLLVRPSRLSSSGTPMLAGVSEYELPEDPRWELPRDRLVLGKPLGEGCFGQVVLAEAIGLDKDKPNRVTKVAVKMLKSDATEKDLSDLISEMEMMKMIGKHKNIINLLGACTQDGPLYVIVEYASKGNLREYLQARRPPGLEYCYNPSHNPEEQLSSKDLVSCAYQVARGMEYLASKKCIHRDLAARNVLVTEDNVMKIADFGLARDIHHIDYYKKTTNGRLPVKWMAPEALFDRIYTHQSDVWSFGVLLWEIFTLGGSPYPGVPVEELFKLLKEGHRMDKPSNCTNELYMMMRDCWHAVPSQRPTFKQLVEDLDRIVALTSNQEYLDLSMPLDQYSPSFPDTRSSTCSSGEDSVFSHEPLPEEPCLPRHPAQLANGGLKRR
Measure: IC50 (µM)

INSERT INTO measurements (compound, target, units_symbol, assay_result) VALUES
  ('O=C(Nc1cnc(Nc2cccc(OCCN3CCCC3)c2)nc1)c1cc(O)ccc1Cl [drawing 201]', 'FGFR1 (Homo sapiens)', 'µM', 7.2);

1. O=C(Nc1cnc(Nc2ccc(S(=O)(=O)NCCN3CCCC3)cc2)nc1)c1cc(O)ccc1Cl [drawing 203]
2. O=C(NCCN1CCCC1)c1ccc(Nc2ncc(NC(=O)c3cc(O)ccc3Cl)cn2)cc1 [drawing 208]
Exercise: Decide: 1 or 2 , by lowest recorded IC50. Indicate your choice by writing its label.
Key: 1
(1: 5.2 µM, 2: 8.2 µM)
